- protocol details: In vivo rat PK
- experimental context: po, read-out: In vivo rat PK T½ (p.o.) (converted)
measurement label: half-life (h)
One number for each entry, in h.

record smiles	half-life / h
CN1C[C@@H]2c3ncccc3Oc3ccccc3[C@@H]2C1	8.9

Next:
stdin: Report half-life for CN1C[C@@H]2c3ncccc3Oc3cc(Cl)ccc3[C@@H]2C1 please.
stdout: 4.6

###

- protocol details: hMics binding
- Assay type: in vitro ADME
- experimental context: human microsomes; read-out: hMics binding % bound (converted)
measurement label: fraction unbound
Numbers only.

stdin: Report fraction unbound for CN1CCN2c3ncccc3Cc3ccccc3C2C1 (stereo not shown) [Mirtazapine, reference compound] please.
stdout: 0.69
